TARGET SYSTEM: Recombinant IKKα (Homo sapiens)
Construct: purchased Millipore, Dundee, UK
Sequence (O15111 1-745): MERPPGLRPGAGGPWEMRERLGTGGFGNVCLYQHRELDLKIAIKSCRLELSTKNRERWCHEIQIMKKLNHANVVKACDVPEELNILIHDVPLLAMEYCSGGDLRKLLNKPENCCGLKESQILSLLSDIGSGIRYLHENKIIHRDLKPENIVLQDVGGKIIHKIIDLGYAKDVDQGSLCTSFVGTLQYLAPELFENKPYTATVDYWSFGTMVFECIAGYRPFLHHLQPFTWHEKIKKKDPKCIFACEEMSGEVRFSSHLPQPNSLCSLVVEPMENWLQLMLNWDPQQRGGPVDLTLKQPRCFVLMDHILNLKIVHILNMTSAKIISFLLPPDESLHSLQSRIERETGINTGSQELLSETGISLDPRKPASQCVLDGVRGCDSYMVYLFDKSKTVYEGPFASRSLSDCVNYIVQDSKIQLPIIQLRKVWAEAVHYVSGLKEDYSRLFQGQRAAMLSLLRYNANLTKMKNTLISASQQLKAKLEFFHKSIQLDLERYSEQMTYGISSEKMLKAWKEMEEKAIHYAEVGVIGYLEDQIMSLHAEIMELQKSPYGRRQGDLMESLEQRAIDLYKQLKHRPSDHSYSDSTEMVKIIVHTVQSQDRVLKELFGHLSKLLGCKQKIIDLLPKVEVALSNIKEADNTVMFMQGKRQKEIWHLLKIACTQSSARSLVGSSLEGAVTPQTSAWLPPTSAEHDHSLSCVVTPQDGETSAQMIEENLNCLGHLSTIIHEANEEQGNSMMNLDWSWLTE
ASSAY TEXT: DELFIA IKKα kinase assay (apparent Ki, Cheng-Prusoff)
Format: biochemical
STUDY CONDITIONS: non-italicised figure: DELFIA assay
TEST READOUT: Ki (nM)

// known answers, use as guide
                                   compound                    target_system  test_readout  scale_unit  result_number
0  NC(=O)c1cccc(-c2cc(-c3ccnc(N)c3)cc3c(N)n[nH]c23)c1 [Example 113]  Recombinant IKKα (Homo sapiens)            Ki          nM             43
1  CC(C)(C)c1cc2c(-c3ccc4[nH]nc(N)c4c3)ccnc2[nH]1 [Example 9]  Recombinant IKKα (Homo sapiens)            Ki          nM             19

P. Nc1nccc(-c2ccc3[nH]nc(N)c3c2)c1C#CCCCN1CCCCC1 [Example 95]
Q. Nc1n[nH]c2ccc(-c3ccnc(NC(=O)NCc4ccccc4)c3)cc12 [Example 45]
R. Nc1n[nH]c2ccc(-c3ccnc(NC(=O)Nc4cccc(CO)c4)c3)cc12 [Example 54]
S. Nc1cc(-c2cc(-c3ccc(CN4CCOCC4)cc3)c3[nH]nc(N)c3c2)ccn1 [Example 122]
T. CNCCCNc1cc(-c2ccc3[nH]nc(N)c3c2)ccn1 [Example 32]
stdin: Sort ascending by Ki. Answer format: the labels, in the requested order.
stdout: R, S, P, Q, T
(R: 14 nM, S: 52 nM, P: 91 nM, Q: 152 nM, T: 340 nM)
